Values compiled from patent US20210214435A1.

# EXPERIMENTAL_SYSTEM: T1, mouse GPVI extracellular domain fused at its C-terminus to human IgG1 Fc (GPVI-Fc) (mouse; human)
# T1 construct: also called mGPVI; mouse GPVI-Fc
# T1 sequence (chain, as listed by the source limits assumed): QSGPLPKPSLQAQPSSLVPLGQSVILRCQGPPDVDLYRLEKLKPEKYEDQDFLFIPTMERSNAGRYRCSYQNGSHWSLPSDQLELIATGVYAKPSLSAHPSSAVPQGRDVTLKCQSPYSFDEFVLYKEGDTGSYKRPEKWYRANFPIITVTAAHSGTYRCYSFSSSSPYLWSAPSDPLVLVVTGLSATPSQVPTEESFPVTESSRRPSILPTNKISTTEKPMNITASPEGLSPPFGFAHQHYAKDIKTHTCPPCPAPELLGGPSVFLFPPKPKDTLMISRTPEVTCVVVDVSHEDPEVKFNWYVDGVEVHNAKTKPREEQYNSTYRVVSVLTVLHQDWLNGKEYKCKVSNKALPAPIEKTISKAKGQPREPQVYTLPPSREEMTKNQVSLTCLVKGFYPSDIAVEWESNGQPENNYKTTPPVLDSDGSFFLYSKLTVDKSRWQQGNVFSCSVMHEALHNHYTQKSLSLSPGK
# EXPERIMENT_NOTES: Solution equilibrium titration (SET), Fab with GPVI-Fc
MEASURE_NAME: Kd

BINDER	MEASURE_NAME	VALUE_REPORTED
Fab #2 comprising a modified heavy chain constant region (Fab, V domains shown, Human Fab from the Ylanthia library; produced in HKB11 cells; also called Fab #2 mod; HC) VH: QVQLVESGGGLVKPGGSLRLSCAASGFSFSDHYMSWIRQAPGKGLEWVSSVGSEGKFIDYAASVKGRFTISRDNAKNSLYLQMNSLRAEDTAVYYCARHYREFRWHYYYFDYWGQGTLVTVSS VL: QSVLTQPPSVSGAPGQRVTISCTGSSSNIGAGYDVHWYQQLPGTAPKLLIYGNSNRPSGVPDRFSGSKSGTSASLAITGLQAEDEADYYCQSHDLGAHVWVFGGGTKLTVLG	Kd	7.1 nM
